- Protocol Notes: Binding affinity to recombinant bacteria NDM-1 (I31 to K268 residues)expressed in Escherichia coli BL21 (DE3) cells by SPR assay
Would you kindly list Kd for each of these molecules?
Kindly provide the numeric value in µM only, without the unit symbol.

Could you tell me which Kd is on file for CCC/C(=N\Nc1ccccc1)C(=O)O ?
188

Form field: reported Kd of CC/C(=N\Nc1ccccc1)C(=O)O
191

Query: Kd; subject: CC/C(=N\Nc1cccc2ccccc12)C(=O)O
449

Which value of Kd has been reported for CC/C(=N\Nc1cccc2cccnc12)C(=O)O.Cl in the records?
275

Give its Kd value. Item: C/C(=N\Nc1cccc2ccccc12)C(=O)O
255

Report Kd for C/C(=N\Nc1ccccc1)C(=O)O please.
168

What Kd value was documented for this molecule, CCC/C(=N\Nc1cccc2cccnc12)C(=O)O.Cl ?
221

Returns the measured Kd for the input molecule. Input: CC(C)(C)/C(=N\Nc1ccccc1)C(=O)O
438

If you can, please state the reported Kd value of C[C@@H](O)[C@H]1C(=O)N2C(C(=O)O)=C(S[C@@H]3CN[C@H](C(=O)N(C)C)C3)[C@H](C)[C@H]12 [MEROPENEM] .
75

# input molecule: CC(C)(C)/C(=N\Nc1cccc2cccnc12)C(=O)O.Cl ; wanted: its Kd
435

Field request: Kd | item: CC(C)(C)/C(=N\Nc1cccc2ccccc12)C(=O)O
307

Any idea what Kd was measured for CCC/C(=N\Nc1cccnc1)C(=O)O.Cl ?
703
